This collection of values is drawn from PubChem BioAssay (Tox21).

Experiment: qHTS assay to identify small molecule antagonists of the estrogen receptor alpha (ER-alpha) signaling pathway - cell viability counter screen (AID 743074);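 also: HEK293 cells carrying ER-alpha-UAS-bla reporter stimulated with 17beta-estradiol; nearly all actives have a fitted effect of over 45% in size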
Conditions: ERalpha-bla HEK293 viability, CellTiter-Glo luminescence, 18 h; series mostly up to 69.4 µM
Results filed as inconclusive are left out. Active and inactive are the calls of the source. Calls follow the shape of the full dose curve.
Give one outcome, nothing more. List: active, inactive

compound=COc1cc2c(c(OC)c1OC)-c1c(cc3c(c1OC)OCO3)C[C@@H](C)[C@](C)(O)C2 label_class=inactive

Prompt: Per the assay record, what outcome was assigned to CCCC(CCC)C(=O)OC1C[C@H]2CC[C@@H](C1)[N+]2(C)C (some centres not stated) ?
Completion: inactive

Prompt: Repeat for the following compound: C[S+](C)CCC(N)C(=O)O (configuration not stated)
Completion: inactive

Prompt: Repeat for the following compound: `C[C@]12O[C@H](C[C@]1(O)CO)n1c3ccccc3c3c4c(c5c6ccccc6n2c5c31)CNC4=O`
Completion: active
